# Lookup of reported protein stability index keyed by entry
# Test system: Saccharomyces cerevisiae
# protocolNotes: protein stability index of tFT-peptide fusion (C-terminal peptide) (PSI (0-1 scale)); higher = more stable (slower turnover)
# conditionSummary: genetic background: cdc34-1; temperature: 37 C
measuredProperty: protein stability index

In [3]: df
Out[3]:
    sequenceinput           targetundertest         measuredproperty  recordedvalue
 0   VGFCICISIMSF  Saccharomyces cerevisiae  protein stability index         0.0373
 1   FALVSLSFALVE  Saccharomyces cerevisiae  protein stability index           0.42
 2   PSDVLERVIRLL  Saccharomyces cerevisiae  protein stability index          0.616
 3   LISGVCLRVKVG  Saccharomyces cerevisiae  protein stability index           0.55
 4   FICLLFSCVYLG  Saccharomyces cerevisiae  protein stability index           0.51
 5   LFLYDFIALRCS  Saccharomyces cerevisiae  protein stability index           0.46
 6   VRTFVFLVGYCE  Saccharomyces cerevisiae  protein stability index          0.594
 7   FRILVGCRVVLM  Saccharomyces cerevisiae  protein stability index          0.429
 8   LSFLFFRLCSFF  Saccharomyces cerevisiae  protein stability index          0.487
 9   VCFFLFWCLSFS  Saccharomyces cerevisiae  protein stability index          0.424
10   DCRFIIFYCVMV  Saccharomyces cerevisiae  protein stability index           0.48
11   VILCSCSFVLRP  Saccharomyces cerevisiae  protein stability index          0.523
12   SCFCFRVLLCSF  Saccharomyces cerevisiae  protein stability index          0.333
13   GRRLGLLNLLSY  Saccharomyces cerevisiae  protein stability index          0.649
14   ASSSPAPYAPYT  Saccharomyces cerevisiae  protein stability index          0.701
15   AKVSFYALARQY  Saccharomyces cerevisiae  protein stability index          0.665
16   PVGRSVFFVWFL  Saccharomyces cerevisiae  protein stability index           0.65
17   FCCSVFCFLCLY  Saccharomyces cerevisiae  protein stability index          0.562
18   CFYVGFLGYFVF  Saccharomyces cerevisiae  protein stability index          0.447

###

Below is a list of entries, each paired with its recorded protein stability index value.
# System: Saccharomyces cerevisiae;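 further: PSI is a weighted mean of sequencing reads over stability bins, variants kept only with over 10 reads, mCherry proximal and sfGFP distal, peptide attached via GGGS linker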
# protocolNotes: protein stability index of tFT-peptide fusion (C-terminal peptide) (PSI (0-1 scale)); higher = more stable (slower turnover)
# conditionSummary: genetic background: cdc53-1; temperature: 37 C
measuredProperty: protein stability index

    sequenceinput           targetundertest         measuredproperty  recordedvalue
 0   AWGSWTLCVAVH  Saccharomyces cerevisiae  protein stability index         0.0323
 1   DAIVLGSVVVCR  Saccharomyces cerevisiae  protein stability index          0.563
 2   FGLVAYPLWYIS  Saccharomyces cerevisiae  protein stability index          0.765
 3   IWIHSVGVECTS  Saccharomyces cerevisiae  protein stability index          0.494
 4   NYVVFVRGIKIT  Saccharomyces cerevisiae  protein stability index          0.609
 5   FLYIPLYCRLSF  Saccharomyces cerevisiae  protein stability index            0.3
 6   YPCRLFVRSLLA  Saccharomyces cerevisiae  protein stability index          0.436
 7   TPYIFVLACLHV  Saccharomyces cerevisiae  protein stability index          0.476
 8   CRFYIRITRRYS  Saccharomyces cerevisiae  protein stability index          0.576
 9   SLCPFLCILCFG  Saccharomyces cerevisiae  protein stability index          0.321
10   LRQKIIYWWLWL  Saccharomyces cerevisiae  protein stability index          0.488
11   LMLIPRLLVGAH  Saccharomyces cerevisiae  protein stability index          0.172
12   LPSRWVPLPTPA  Saccharomyces cerevisiae  protein stability index          0.569
13   RRTTIFDTKEPP  Saccharomyces cerevisiae  protein stability index          0.563
14   SHPAPPSPPPSP  Saccharomyces cerevisiae  protein stability index          0.676
15   VKIEVICRVSLI  Saccharomyces cerevisiae  protein stability index          0.459
16   RFLVVVRFYWRC  Saccharomyces cerevisiae  protein stability index          0.424
17   KLSLRYLLVSLI  Saccharomyces cerevisiae  protein stability index          0.602
18   LSFLFFRLCSFF  Saccharomyces cerevisiae  protein stability index          0.551
19   IVVVVRLSPILG  Saccharomyces cerevisiae  protein stability index          0.397
20   SQCVVYLSVRFS  Saccharomyces cerevisiae  protein stability index            0.5
21   VFSVTVVFVSVL  Saccharomyces cerevisiae  protein stability index          0.271
22   RRGLIFFLCCPA  Saccharomyces cerevisiae  protein stability index          0.434
23   SWFRRPFPPRLL  Saccharomyces cerevisiae  protein stability index            0.6
24   VVTFCCARVTKI  Saccharomyces cerevisiae  protein stability index            0.7
25   WLCLFRFLGVAY  Saccharomyces cerevisiae  protein stability index          0.245
26   FGWLELVWFDLG  Saccharomyces cerevisiae  protein stability index          0.684
27   FWFSFSFLCHSY  Saccharomyces cerevisiae  protein stability index          0.449
28   VYCLVLFFSQWC  Saccharomyces cerevisiae  protein stability index          0.484
29   LFFGFFLIYFLG  Saccharomyces cerevisiae  protein stability index          0.484
30   LSLWPIFGIIYC  Saccharomyces cerevisiae  protein stability index          0.464
31   VWGLGWLVVGVG  Saccharomyces cerevisiae  protein stability index          0.218
32   LFLLSVNLLLGY  Saccharomyces cerevisiae  protein stability index         0.0949
33   PFFHVFLLLLLI  Saccharomyces cerevisiae  protein stability index          0.136
34   FALVSLSFALVE  Saccharomyces cerevisiae  protein stability index          0.457
35   ECCKRFCCRFVA  Saccharomyces cerevisiae  protein stability index          0.698
36   WLWYSPIAFTAL  Saccharomyces cerevisiae  protein stability index          0.764
37   KMIVWKESIKRE  Saccharomyces cerevisiae  protein stability index          0.739
38   LLVRSFIFPLVY  Saccharomyces cerevisiae  protein stability index          0.428
39   VVLAFFFWFFVG  Saccharomyces cerevisiae  protein stability index          0.518
40   VSSSFSVLVLLF  Saccharomyces cerevisiae  protein stability index          0.545
41   GGVVGRPWWYVG  Saccharomyces cerevisiae  protein stability index          0.794
42   PPSPVPPIWYLA  Saccharomyces cerevisiae  protein stability index          0.759
43   VWFVFVCAVCVL  Saccharomyces cerevisiae  protein stability index          0.298
44   TFVGWIVWLCGS  Saccharomyces cerevisiae  protein stability index          0.621
45   PVKGTMIKAKNT  Saccharomyces cerevisiae  protein stability index           0.73
46   FVVVGVLFLCVG  Saccharomyces cerevisiae  protein stability index          0.412
47   WGLPVGVESSGG  Saccharomyces cerevisiae  protein stability index          0.761
48   LGRYHPWLLFLC  Saccharomyces cerevisiae  protein stability index          0.451
49   HVLGSIYWAIFV  Saccharomyces cerevisiae  protein stability index          0.493
50   LLSAFPYLPVFA  Saccharomyces cerevisiae  protein stability index          0.326
51   GPNWCSVCQGVG  Saccharomyces cerevisiae  protein stability index          0.477
52   MGDFGFIFVFFL  Saccharomyces cerevisiae  protein stability index          0.606
53   LFLPFLPTLALL  Saccharomyces cerevisiae  protein stability index          0.823
54   ILLHSFFSFYLL  Saccharomyces cerevisiae  protein stability index          0.503
55   LLYYMPELLILT  Saccharomyces cerevisiae  protein stability index          0.145
56   VTLVIYVLVQLT  Saccharomyces cerevisiae  protein stability index          0.198
57   GYRGRITRLVNG  Saccharomyces cerevisiae  protein stability index          0.715
58   LFYVCPFVCFLC  Saccharomyces cerevisiae  protein stability index          0.629
59   SREQANTVYRLI  Saccharomyces cerevisiae  protein stability index          0.713
60   TRKKENERRKNG  Saccharomyces cerevisiae  protein stability index          0.721
61   LLVVGPVRLVVH  Saccharomyces cerevisiae  protein stability index          0.259
62   AVPTSPYSLIVY  Saccharomyces cerevisiae  protein stability index          0.495
63   GPFGVGALVCCM  Saccharomyces cerevisiae  protein stability index          0.443
64   VWWTLWRVHMLG  Saccharomyces cerevisiae  protein stability index          0.644
65   HLLMLAMVGFQC  Saccharomyces cerevisiae  protein stability index          0.688
66   GPPPAPSPTPSP  Saccharomyces cerevisiae  protein stability index          0.725
67   GCILSLCYAVST  Saccharomyces cerevisiae  protein stability index          0.569
68   TFVLREYVWVMS  Saccharomyces cerevisiae  protein stability index          0.425
69   STVGAWGRVGEG  Saccharomyces cerevisiae  protein stability index          0.462
70   PSPVPPPSSPSP  Saccharomyces cerevisiae  protein stability index          0.728
71   SCFCFRVLLCSF  Saccharomyces cerevisiae  protein stability index          0.348
72   GRWLYSACVALN  Saccharomyces cerevisiae  protein stability index           0.71
73   SFFWAMSLLCFV  Saccharomyces cerevisiae  protein stability index          0.559
74   GWCLGFWCLLVC  Saccharomyces cerevisiae  protein stability index         0.0444
75   LLLLRCLWISHA  Saccharomyces cerevisiae  protein stability index          0.441
76   TCGAKWIFSHIC  Saccharomyces cerevisiae  protein stability index          0.754
77   LLPLLFFFLCLP  Saccharomyces cerevisiae  protein stability index          0.584
78   YALVQHRWVYYF  Saccharomyces cerevisiae  protein stability index          0.633
79   GVLLLGSYQWVG  Saccharomyces cerevisiae  protein stability index          0.394
80   DPPRPIMRIHMI  Saccharomyces cerevisiae  protein stability index          0.651
81   SVSRIFRTFSCY  Saccharomyces cerevisiae  protein stability index          0.759
